Data origin: patent US20220380463A1

# measured target: T1, Cynomolgus CD3εδ Fc heterodimer (Cy CD3ε Fc / CD3δ Fc-HIS) (cynomolgus, UniProt Q95LI8 22-100)
# T1 chain 1: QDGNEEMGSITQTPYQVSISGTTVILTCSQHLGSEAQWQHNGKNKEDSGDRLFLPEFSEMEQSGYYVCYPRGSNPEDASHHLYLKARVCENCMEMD
# T1 chain 2: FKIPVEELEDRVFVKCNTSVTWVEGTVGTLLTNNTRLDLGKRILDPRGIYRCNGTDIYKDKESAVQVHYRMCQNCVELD
# protocol description: BLI (Octet), IgG on AHC sensor, pH 7.4
attribute measured: kon (M⁻¹ s⁻¹)
Output spec: scalar in M⁻¹ s⁻¹, unitless text.

Prompt line: Requested read-out: kon. Entry: SAD10319_P02_E04 (ADI-57311) (antibody, V domains shown, IgG; also called Ab252) VH: QVQLVQSGAEVKKPGASVKVSCKASGYTFESYYMHWVRQAPGQRLERMGSIVAGTGATKYSQKFQGRVTITRDTSASTAYMELSSLRSEDTAVYYCARDHYGRYFYDVWGQGTPVTVSS VL: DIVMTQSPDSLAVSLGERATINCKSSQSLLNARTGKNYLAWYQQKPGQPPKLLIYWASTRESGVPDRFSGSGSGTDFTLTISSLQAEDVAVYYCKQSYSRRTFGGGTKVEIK
Response line: 324000
